- TESTED_SYSTEM: BAL (benzaldehyde lyase) (Pseudomonas fluorescens, UniProt Q9F4L3)
- Sequence (Q9F4L3 1-563): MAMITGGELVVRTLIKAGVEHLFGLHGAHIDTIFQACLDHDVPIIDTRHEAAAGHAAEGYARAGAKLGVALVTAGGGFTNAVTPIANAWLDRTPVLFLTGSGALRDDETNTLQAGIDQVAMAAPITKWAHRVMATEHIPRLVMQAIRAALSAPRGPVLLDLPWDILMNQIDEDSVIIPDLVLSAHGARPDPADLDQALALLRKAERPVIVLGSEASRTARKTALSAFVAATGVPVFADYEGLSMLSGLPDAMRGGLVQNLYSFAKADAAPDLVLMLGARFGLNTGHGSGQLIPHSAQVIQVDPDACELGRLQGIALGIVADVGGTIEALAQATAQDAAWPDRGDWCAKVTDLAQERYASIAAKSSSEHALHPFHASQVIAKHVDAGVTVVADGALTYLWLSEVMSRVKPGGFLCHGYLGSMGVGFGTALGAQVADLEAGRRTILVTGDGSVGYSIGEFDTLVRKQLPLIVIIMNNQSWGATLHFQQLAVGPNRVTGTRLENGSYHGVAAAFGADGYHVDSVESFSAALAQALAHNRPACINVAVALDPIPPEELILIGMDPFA
- ASSAY_TEXT: CD titration, Hill fit
- CONDITION_PARAMETERS: pH 8.0, 50 mM Tris, 0.2 mM ThDP, 1 mM MgCl2, 30 °C; covalent adduct with ThDP
EXPERIMENTAL_READOUT: Kd

Given the entry O=C(O)C(=O)/C=C/c1ccc(Cl)cc1 , report its measured Kd.
1.1 mM
